B1: ANKRD9 (parent)
chain: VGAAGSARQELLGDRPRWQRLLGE

Variants of: B1
Assay: protein stability index of a GFP-peptide fusion (GPS, HEK-293T) (PSI 1-6); higher = more stable;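 also: lentivirally expressed fusions sorted by FACS into six bins by GFP to DsRed ratio, PSI derived from sequencing read proportions per bin multiplied by bin number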
Conditions: c terminus: a fixed tail appended
Values of protein stability index greater than or equal to 3 map to 1; values below map to -1.

Input: In plain terms: is recorded protein stability index at least 3 for `L22G` ?
Output: 1

Input: Would you say `W18N` shows protein stability index at minimum 3?
Output: 1

These entries and their values trace back to the supplement of paper PMC10567573.
